Provenance of the data: the Immune Epitope Database (IEDB)

biological target: HLA-A*11:01; assay: IEDB peptide-MHC binding, purified MHC/competitive/fluorescence; bounds were set here for any values at or beyond the usual limits of such assays; conditions: source organism: Vaccinia virus
recorded_endpoint: IC50 (µM)
Give bare numbers, in µM.

Using the record for TTPMMIQTR , report its IC50.
46.1

###

molecular target: HLA-B*07:02; assay: IEDB peptide-MHC binding, purified MHC/competitive/radioactivity; filed as Kd, often an IC50 or EC50 that approximates it; bounds were set here for any values at or beyond the usual limits of such assays; settings: source organism: Vaccinia virus WR
Would you mind telling me the reported Kd of each entry?
One number for each entry, in µM.

TPTIEDDKIV    19.7

Below: the item to evaluate.
Using the record for FPDIPVNNNI , report its Kd.
0.821

###

biological target: HLA-A*68:02; assay: IEDB peptide-MHC binding, purified MHC/competitive/fluorescence; bounds were set here for any values at or beyond the usual limits of such assays; settings: source organism: Gorilla gorilla gorilla
pIC50: −log10 of the molar value.
recorded_endpoint: pIC50

Using the record for RYSHWTKL , report its pIC50.
≤ 4.70

###

Would you mind telling me the reported Kd of each entry?
target: HLA-B*54:01; assay: IEDB peptide-MHC binding, purified MHC/competitive/radioactivity; filed as Kd, often an IC50 or EC50 that approximates it; bounds were set here for any values at or beyond the usual limits of such assays; settings: source organism: Vaccinia virus WR
One number for each entry, in µM.

Worked cases, answers included:
FPDIPVNNNI    0.0693
MPSACANGWI    5.4

Below: the item to evaluate.
Using the record for TPTIEDDKIV , report its Kd.
3.15

###

target: HLA-A*29:02; experiment: IEDB peptide-MHC binding, purified MHC/competitive/fluorescence; filed as Kd, often an IC50 or EC50 that approximates it; bounds were set here for any values at or beyond the usual limits of such assays; conditions: source organism: Crocodilepox virus
recorded_endpoint: pKd
Answers are plain numbers, as −log10 of the molar value.

Using the record for RVRSMANVY , report its pKd.
7.82

###

target: HLA-B*57:01; experiment: IEDB peptide-MHC binding, purified MHC/direct/fluorescence; filed as Kd, often an IC50 or EC50 that approximates it; bounds were set here for any values at or beyond the usual limits of such assays; conditions: source organism: Francisella tularensis subsp. holarctica LVS
pKd: −log10 of the molar value.
recorded_endpoint: pKd

Using the record for EFKRRLKDL , report its pKd.
≤ 4.70

###

molecular target: HLA-B*15:01; assay: IEDB peptide-MHC binding, purified MHC/direct/fluorescence; filed as Kd, often an IC50 or EC50 that approximates it; bounds were set here for any values at or beyond the usual limits of such assays; details: source organism: Cryptosporidium parvum
recorded_endpoint: Kd

Using the record for WLPWIPQLI , report its Kd.
≥ 5 µM

###

target: HLA-B*44:02; test: IEDB peptide-MHC binding, purified MHC/direct/fluorescence; filed as Kd, often an IC50 or EC50 that approximates it; bounds were set here for any values at or beyond the usual limits of such assays; settings: source organism: Vibrio parahaemolyticus
pKd: −log10 of the molar value.
Would you mind telling me the reported pKd of each entry?

QYDDLHKKF    ≤ 4.70

Below: the item to evaluate.
Using the record for ASEELMDKY , report its pKd.
≤ 4.70
